# System: NCI-H23 lung
# experiment: NCI-60 one-dose screen, 48 h
# statedConditions: 10 µM unless noted
The panel holds about 83,000 compounds, 20% with a hit somewhere; the sample as a whole holds those more often. The source made the active and inactive calls. How the source made its calls: active means growth percent below 10; inactive means the rest.
Outcome field: choose from active, inactive

Before answering, review these 2 worked examples.
compound	qualitativeLabel
COc1ccc(Nc2nccc(Nc3ccc4[nH]ncc4c3)n2)cc1	inactive
COc1cc(OCc2cccc(-c3ccccc3)c2C)cc(OC)c1CN1CCCCC1C(=O)NCCOCCOCCN (stereo not given)	inactive

Query block: Give the logged outcome of this assay for the following compound: COc1ccc2c(O)cc3c(c2c1)[C@H](CCl)CN3C(=O)c1cc2cc(NC(=O)CCN3CCOCC3)ccc2[se]1
Result block: active

Query block: Give the logged outcome of this assay for the following compound: CCOC(=O)C1=CCC(n2cc(F)c(=O)[nH]c2=O)O1 (stereo not given)
Result block: inactive

Query block: Give the logged outcome of this assay for the following compound: COc1ccccc1/C=C/C1=C(C)CCC(c2ccccc2OC)C1C (stereo not given)
Result block: inactive

###

The entries below come with measured growth values attached.
# System: RPMI-8226 leukemia
# experiment: NCI-60 one-dose screen, 48 h (100 = growth as untreated, 0 = no growth, -100 = all killed)
# statedConditions: 10 µM unless noted
Compounds without any hit were thinned out: in the full panel of roughly 83,000, 20% have a hit.
Report as a plain number; the unit % is understood.

> print(dat)
                           smi  measvalue
1  CCOc1ccc(N2C(=O)CCSC2=S)cc1        104

Query block: What does the record list as growth for Nc1ncc(-c2ccc3ncnc(N4CCc5cc(F)c(Cl)cc54)c3c2)cc1C=O ?
Result block: -4.54

Query block: What does the record list as growth for CCNCCNc1c(C)c(-c2ccc(C(F)(F)F)cc2)c(C#N)c2nc3ccccc3n12 ?
Result block: 86.4

Query block: What does the record list as growth for Cn1ncc(CC(=O)O)c1-n1nnc2cc(Cl)ccc2c1=O ?
Result block: 106

Query block: What does the record list as growth for COc1ccc(-c2cc(-c3ccc(Nc4nc(Nc5ccc(Cl)cc5)nc(Nc5ccc(Cl)cc5)n4)cc3)no2)cc1 ?
Result block: 12.5

Query block: What does the record list as growth for Cc1csc(Nc2nc(-c3cccc(Cl)c3)nc(C(Cl)(Cl)Cl)n2)n1 ?
Result block: 13.8

###

The entries below come with measured growth values attached.
# System: CCRF-CEM leukemia
# experiment: NCI-60 one-dose screen, 48 h (100 = growth as untreated, 0 = no growth, -100 = all killed)
# statedConditions: 10 µM unless noted
The panel holds about 83,000 compounds, 20% with a hit somewhere; the sample as a whole holds those more often.
Report as a plain number; the unit % is understood.

Solved cases (6 shown):
> print(dat)
                                   compound         systemname  reportedmetric  unitdescriptor  measvalue
1  Nc1nc(N)c2c(n1)NC(c1ccc3c(c1)OCO3)CC(c1cccc(Nc3ccncc3)c1)=N2 (centres undefined)  CCRF-CEM leukemia          growth               %         70
2  CC(=O)Oc1ccccc1C(=O)N(Cc1ccc2c(Cl)cc(Cl)c(O)c2n1)c1ccccc1  CCRF-CEM leukemia          growth               %       31.3
3  CCOC(=O)c1c(Nc2nc3ccccc3s2)sc2c1CCC(=O)C2  CCRF-CEM leukemia          growth               %       16.9
4  CN(Cc1ccccc1)c1nc(Cl)c(C2CC(c3ccc(Cl)cc3)=NN2c2cc(Cl)cc(Cl)c2)s1 (centres undefined)  CCRF-CEM leukemia          growth               %       95.1
5  C=C(c1ccc(OC)c(/C=C/C(=O)c2cc(OC)c(OC)c(OC)c2)c1)c1cc(OC)c(OC)c(OC)c1  CCRF-CEM leukemia          growth               %       17.9
6  O=C1N/C(=N/N=C(c2ccccc2)c2ccccc2)S/C1=C\c1ccc(Br)cc1  CCRF-CEM leukemia          growth               %       84.4

Query block: What does the record list as growth for COC(=O)c1c(C)nc(C)c2c1C(=O)C(Br)=C(NCCN1CCOCC1)C2=O ?
Result block: 97.3

Query block: What does the record list as growth for C=CCn1c(SCC(=O)Nc2ccc(C(=O)/C=C/c3ccc(Cl)cc3)cc2)nnc1-c1ccc(Cl)c(Cl)c1 ?
Result block: 52.9

Query block: What does the record list as growth for O=C1NCCS(=O)(=O)/C1=C\C=C\c1cccc(C(F)(F)F)c1 ?
Result block: 0.774

Provenance of the data: PubChem BioAssay (NCI)
